- Assay Text: proliferation blockers of H69AR lung cancer cells, primary screen, cell-based, human, 86K library (AID 598);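 also: multidrug resistant small cell line overexpressing MRP-1 efflux transporter; 100% = mean luminescence of untreated control wells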
- Condition Label: H69AR lung tumor viability, ATP luminescence, 72 h; at 10 µM; hits give low values
In all, about 85,000 compounds went through this assay and about 5,100 (6%) were called active. For the sample, actives were picked, then their nearest neighbours and some compounds at random.
Assignment: determine reported viability for the given compounds.
// return numeric value only (unit: %, not printed)

Consider the compound COc1ccc(Br)cc1CN1CCN(C(=O)c2cccc(OC)c2OC)CC1 and give its measured viability.
70.4

Same thing, different compound: CCOC(=O)CSc1nc2ccc(C)cc2[nH]1
89.4

Thanks! And CC(C)Oc1ccc(Oc2ccc(C(F)(F)F)cn2)cc1 ?
98.7

What about this compound? COC(=O)c1ccccc1Oc1c(F)c(F)nc(N2CCOCC2)c1F
67.1

Now consider Cc1nc(NC(=O)CN(C)S(=O)(=O)c2ccc(Cl)cc2)sc1C .
61.4

Another: Cc1cccc(NC(=O)/C(=C\c2ccco2)NC(=O)c2ccccc2)c1
85.2

Next: CC(Sc1nc2ccccc2c(=O)n1Cc1ccco1)C(=O)c1ccccc1 (configuration not stated)
77.2

Record: OC(COc1cccc(OCC(O)CN2CCCC2)c1)CN1CCCC1 (configuration not stated)
99.3

Follow-up item: Cn1c(SCC(=O)N2CCCc3ccccc32)nc2ccccc2c1=O
62.9

Here is the next compound: CCOc1cccc(NC(=O)Cn2nc(-c3ccc4c(c3)OCCO4)ccc2=O)c1
69.3

Also c1ccc(Nc2nc(N3CCOCC3)c3ccccc3n2)cc1 , if possible.
95.8

And then CCCCCCSc1nsc(N)n1 , what is it?
82.7

---

Please respond with reported viability for every item in the list.
- Assay Text: proliferation blockers of H69AR lung cancer cells, primary screen, cell-based, human, 86K library (AID 598)
- Condition Label: H69AR lung tumor viability, ATP luminescence, 72 h; at 10 µM; hits give low values
In all, about 85,000 compounds went through this assay and about 5,100 (6%) were called active. Shown is part of a subset that was picked to be rich in actives.
Enter your answer as a number in %; do not include the unit.

What value of viability has been reported for the following compound? Cn1c(C(=O)NCCN2CCc3ccccc3C2)cc2c(=O)[nH]c3ccccc3c21
61.7

Field entry: CC(=O)c1ccc(Oc2cc(C)nc(-n3nc(C)cc3C)n2)cc1
23.4

How about Cc1[nH]n(-c2ccc([N+](=O)[O-])cc2)c(=O)c1C=NCCN1CCN(C(=O)c2ccccc2F)CC1 ?
39.4

CN(C)C(=O)c1cc(Br)ccc1Cl , same question.
100

Continue with CCC(C)Sc1nc2c(c(=O)[nH]c(=O)n2C)n1CC(O)COc1cccc2ccccc12 (stereo unspecified)
30.7

Continue with CCOC(=O)c1sc(=S)n(-c2cccc(OC)c2)c1N
97.3

Do the same for Cc1cccc(C)c1NC(=O)CSc1nnc(-c2ccccc2)n1Cc1ccc2c(c1)OCO2 please
72.2

What do you get for COc1cc2c(cc1OC)CN(C(=O)c1cc(=O)c3ccccc3o1)CC2 ?
18.1

Then COC(=O)c1cc(NC(=O)C2C3C=CC(C3)C2C(=O)O)cc(C(=O)OC)c1 (stereo unspecified) ?
94.8

Same read-out for Cc1cccc(N2CCN(C(=O)c3cc4c(=O)[nH]c5ccccc5c4n3C)CC2)c1C ?
36

Also, COc1c(C)cccc1C(=O)Nc1cc(Cl)ccc1N1CCOCC1 please.
82.7

And what about the compound CC1CCCC(C)N1CCCNC(=O)c1cc2c(=O)n(C)c3ccccc3c2n1C (stereo unspecified) ?
69.1

Continue with O=C1C2N=NN(CC(=O)N3N=C(c4cccc5ccccc45)CC3c3ccccc3)C2C(=O)N1c1ccccc1 (stereo unspecified)
70.5

Now this one: Cc1ccc(-c2nc3c(cnn3-c3ccccc3)c(=O)o2)cc1
79.6

Here is the next compound: CN(C)S(=O)(=O)c1cccc(C(=O)Nc2cccnc2)c1
89.9

Moving on to the next compound: CC(=O)N1CCN(CCN=CC2=C(O)CC(C)(C)CC2=O)CC1
101

Next: CCN(CC)S(=O)(=O)c1cccc(C(=O)Nc2ccccc2)c1
38.5

Next record, please: O=C(O)CSCc1ccc(C(=O)O)o1
96.9

Another: CCN(CC)S(=O)(=O)c1cccc(C(=O)NCC(=O)OCC(=O)NCc2ccccc2)c1
87.6

How about this compound: CCn1c(=O)cc(OCC(=O)NCCCN2CCN(c3cccc(Cl)c3)CC2)c2ccccc21
43.8

Param item: COc1ccc(S(=O)(=O)N2CCC(C(=O)N3CCc4ccccc4C3)CC2)cc1OC
88.7

---

- Assay Text: proliferation blockers of H69AR lung cancer cells, primary screen, cell-based, human, 86K library (AID 598);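 also: multidrug resistant small cell line overexpressing MRP-1 efflux transporter; 100% = mean luminescence of untreated control wells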
- Condition Label: H69AR lung tumor viability, ATP luminescence, 72 h; at 10 µM; hits give low values
About 5,100 (6%) of roughly 85,000 compounds were called active. The sample as a whole holds a higher share of actives than the screen did.
I'd appreciate it if you marked entries true when viability is lower than 90% and false when it is not.

I wonder whether COc1ccc(Cl)cc1C(=O)NCc1cn(C)nc1C has viability below 90%. Can you tell?
true

Then CCC(C)NC(=O)C1CCCN(C(=O)NC2CCCCC2)C1 (stereo unspecified) ?
false

And the next one, CC(NC(=O)CSc1nc2c(cc1C#N)CN(C)CC2)c1ccccc1 (stereo unspecified) ?
true

Likewise for N=c1c2c(-c3ccccc3)c(-c3ccccc3)n(Cc3ccccc3)c2ncn1CCCO ?
true

Do the same for Cc1ccc(-n2cc3ccc([N+](=O)[O-])cc3n2)cc1 please
true

---

Kindly state viability for each of the entries shown.
- Assay Text: proliferation blockers of H69AR lung cancer cells, primary screen, cell-based, human, 86K library (AID 598);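 also: multidrug resistant small cell line overexpressing MRP-1 efflux transporter; 100% = mean luminescence of untreated control wells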
- Condition Label: H69AR lung tumor viability, ATP luminescence, 72 h; at 10 µM; hits give low values
Out of some 85,000 compounds screened, about 5,100 (6%) were called active. What follows is part of a selection rich in actives, with near analogues and random picks from the rest.

Looking for the measured viability of Cc1cc(Br)ccc1NC(=O)C1CCCO1 (stereo unspecified) , can you help?
101% (inactive)

Now consider Cc1ccccc1CSCCNC(=O)c1ccc(Cl)c(S(=O)(=O)N2CCOCC2)c1 .
24.7% (active)

// repeat for CCNc1nc(NC(C)C)nc(OCCOC(=O)c2ccccc2)n1 and report
83.5% (inactive)

Could you do the same for Cc1ccc(C(=O)NCC2CCCO2)o1 (stereo unspecified) , please?
93.7% (inactive)

Another: Cc1ccc(C(=O)Nc2ccccc2C(=O)NC2CCCCC2)cc1S(=O)(=O)N1CCOCC1
73% (inactive)

Ok, now Cc1ccc(OC(=O)c2cc3ccccc3o2)cc1
104% (inactive)

---

- Assay Text: proliferation blockers of H69AR lung cancer cells, primary screen, cell-based, human, 86K library (AID 598);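 also: multidrug resistant small cell line overexpressing MRP-1 efflux transporter; 100% = mean luminescence of untreated control wells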
- Condition Label: H69AR lung tumor viability, ATP luminescence, 72 h; at 10 µM
About 5,100 (6%) of roughly 85,000 compounds were called active.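 How the source made its calls: active means viability at or below 40%; inactive means viability above 40%.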 What follows is part of a selection rich in actives, with near analogues and random picks from the rest.
Please answer using one outcome listed in active, inactive

Answer briefly: the call reported for Cc1cnc(NC(=O)CSc2nnc(C)s2)s1 in this assay.
inactive

Continue with COc1ccc(C(=O)n2nc(-c3ccc(Cl)cc3)nc2N)cc1OC
inactive

Proceed to CCCCCCc1cc2cc(-c3nnc(-c4ccccc4)o3)c(=O)oc2cc1O
active

Then what about the compound Cc1cc2nnc(SCC(=O)N3CCN(c4ccccc4)CC3)n2c(N)n1 ?
inactive

Same question, COc1ccccc1C(=O)n1nc(-c2ccccc2)nc1N this time
inactive

Consider next the compound S=C1NC(c2ccccc2)=NCN1c1ccc(Br)cc1 in the same way.
inactive

Also, Cc1ccc(/C=N/NC(=O)C2=NNC(c3ccccc3)(c3ccccc3)C2)c(O)c1 please.
inactive

Thanks! And CCn1c(SCC(=O)Nc2nc3ccc(OC)cc3s2)nnc1-c1ccoc1C ?
inactive

Record: CCCCN(CC)CCCNC(=O)CS(=O)(=O)Cc1nc(-c2cccc(OC)c2)oc1C
inactive

Here is the next compound: CCCCCCc1cc2cc(-c3nnc(-c4cccc(OC)c4)o3)c(=O)oc2cc1O
active

And CCN1C(=O)/C(=C\N2CCOCC2)SC1=S ?
inactive

Record: Cc1ccccc1NC(=O)Cc1nnc(SCC(=O)N2CCN(c3ccccc3)CC2)n1C
inactive

// repeat for CC(C)c1cc(C(=O)O)n[nH]1 and report
inactive

How about O=c1oc2cc(O)ccc2cc1-c1ccc(F)cc1 ?
inactive

Next up: CCC1(C)Cc2c(sc3[nH]c(=S)n(Cc4ccccc4)c(=O)c23)CO1 (centres undefined)
active

Now consider COc1ccc(C(=O)n2nc(-c3ccc(C)cc3)nc2N)cc1OC .
active

Also, O=C(Cc1ccccc1)Nc1c(C(=O)N2CCCCCC2)cnn1-c1ccccc1 please.
inactive

Queued: COC(=O)C1=C(C(=O)c2ccc(C)cc2)C(c2ccccc2)n2nnnc2N1 (centres undefined)
inactive

Try this compound too: N#C/C(=C(\O)CCl)c1nnc2n1CCCCC2
active

Try this compound too: NC1=NC(=O)C2(COC(c3ccccc3Cl)OC2)S1 (centres undefined)
inactive

Thanks! And COc1ccc(NC(=O)CC2COc3ccccc3O2)c(OC)c1 (centres undefined) ?
inactive

Next entry: CCOc1ccccc1NC(=O)c1cccnc1
inactive

// query: CCS(=O)(=O)c1ccc2oc(SCC(=O)N3c4ccccc4CC3C)nc2c1 (centres undefined)
inactive

Another compound to check: CCC1(C)Cc2c(sc3nc(SC)nc(N)c23)CO1 (centres undefined)
inactive
